Target: Perilipin-5 (Homo sapiens) + 1-acylglycerol-3-phosphate O-acyltransferase ABHD5 (Homo sapiens) (UniProt Q00G26+Q8WTS1)
Sequence (Q00G26 whole entry, looked up, the tested form may be a part): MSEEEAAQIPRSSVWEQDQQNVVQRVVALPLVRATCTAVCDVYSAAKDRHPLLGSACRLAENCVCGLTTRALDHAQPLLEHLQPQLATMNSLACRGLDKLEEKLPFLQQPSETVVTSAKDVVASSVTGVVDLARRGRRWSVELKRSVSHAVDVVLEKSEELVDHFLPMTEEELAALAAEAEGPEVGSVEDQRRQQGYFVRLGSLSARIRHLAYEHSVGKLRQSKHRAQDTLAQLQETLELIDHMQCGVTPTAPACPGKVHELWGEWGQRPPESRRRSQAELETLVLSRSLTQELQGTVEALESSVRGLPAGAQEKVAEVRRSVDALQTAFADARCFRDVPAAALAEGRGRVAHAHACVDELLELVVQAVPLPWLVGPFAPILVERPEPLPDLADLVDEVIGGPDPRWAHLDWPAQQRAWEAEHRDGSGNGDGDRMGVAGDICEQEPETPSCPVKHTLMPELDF
Sequence (Q8WTS1 whole entry, looked up, the tested form may be a part): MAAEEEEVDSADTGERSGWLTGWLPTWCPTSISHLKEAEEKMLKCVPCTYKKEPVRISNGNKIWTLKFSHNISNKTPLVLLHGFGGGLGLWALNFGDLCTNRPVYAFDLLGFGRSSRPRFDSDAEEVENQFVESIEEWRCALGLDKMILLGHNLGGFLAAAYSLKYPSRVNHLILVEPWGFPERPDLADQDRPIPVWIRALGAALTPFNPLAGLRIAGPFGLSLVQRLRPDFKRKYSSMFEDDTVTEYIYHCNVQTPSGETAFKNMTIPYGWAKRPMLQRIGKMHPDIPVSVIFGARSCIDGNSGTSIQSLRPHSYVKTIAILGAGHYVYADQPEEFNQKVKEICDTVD
Assay: blockers of ABHD5 binding to perilipin-5 – cell lysate, luminescence, proteins expressed in HEK293T, dose response (AID 651733);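 note: split Gaussia princeps luciferase complementation between ABHD5 and MLDP fusion proteins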
Details: ABHD5-PLIN5 interaction
ENDPOINT: IC50

• Cc1cccc(C)c1NC(=O)C(c1ccccc1)n1c(=O)c(-c2ccco2)nc2ccccc21 (centres undefined) = 7.69 µM
• C#CCN(C[C@@H]1[C@@H](OC(=O)NCc2ccc(OC)c(OC)c2)[C@@H](OC(=O)NCc2ccc(OC)c(OC)c2)Cn2c(=O)ccc(=O)n21)S(=O)(=O)c1ccc(C)cc1 = 5.74 µM
• CCN1C/C(=C/c2ccc(OC)c(O)c2)C(=O)/C(=C/c2ccc(OC)c(O)c2)C1 = 7.28 µM

Values from PubChem BioAssay AID651733
